Where do the numbers come from? From patent US4851338A.

Property: % specific cytotoxicity; scope: individual molecules
tested on: NK-cells activity (lymphocytes) against K-562 cells; assay: Inhibition of NK-cells activity (chromium release cytotoxicity of lymphocytes against K-562); format: cell-based, human; settings: 1 mg/ml oligosaccharide; experiment 1 (without inhibitor 22.3); ratio 20:1
Write the answer as a number in %, unit excluded.

A selection of reference data follows.
MOLECULE: CC(=O)N[C@H]1[C@H](O[C@@H]2[C@@H](OC[C@H]3O[C@@H](O[C@H]4[C@H](O)[C@@H](NC(C)=O)C(O)O[C@@H]4CO)[C@@H](O)[C@@H](O)[C@@H]3O)O[C@H](CO)[C@@H](O)[C@@H]2O)O[C@H](CO)[C@@H](O[C@@H]2O[C@H](CO)[C@H](O)[C@H](O)[C@H]2O)[C@@H]1O (stereo partly shown) [GM1 -penta]
ASSAY_METRIC: % specific cytotoxicity
ASSAY_VALUE: 6.5

MOLECULE: CC(=O)N[C@H]1[C@H](O[C@@H]2[C@@H](OC[C@H]3O[C@@H](O[C@H]4[C@H](O)[C@@H](NC(C)=O)C(O)O[C@@H]4CO)[C@@H](O)[C@@H](O[C@H]4O[C@H](CO)[C@@H](O)[C@H](O)[C@@H]4O[C@@H]4O[C@H](CO)[C@@H](O[C@@H]5O[C@H](CO)[C@H](O)[C@H](O)[C@H]5O)[C@H](O)[C@H]4NC(C)=O)[C@@H]3O)O[C@H](CO)[C@@H](O)[C@@H]2O)O[C@H](CO)[C@@H](O[C@@H]2O[C@H](CO)[C@H](O)[C@H](O)[C@H]2O)[C@@H]1O (stereo partly shown) [GM1 -octa]
ASSAY_METRIC: % specific cytotoxicity
ASSAY_VALUE: 11.3

MOLECULE: CC(=O)NC1C(O)CC(OC2C(O)C(CO)OC(OC3C(CO)OC(O)C(O)C3O)C2O)(C(=O)O)OC1C(O)C(O)CO (stereo not drawn) [3'siallyl-lactose, α-NeuNAcp-(2-3)-β-Galp-(1-4)-Glc, reference compound]
ASSAY_METRIC: % specific cytotoxicity
ASSAY_VALUE: 25.2

// below: % specific cytotoxicity requested for another molecule
Task: // query % specific cytotoxicity value for entry CC(=O)NC1C(O)CC(OCC2OC(OC3C(CO)OC(O)C(O)C3O)C(O)C(O)C2O)(C(=O)O)OC1C(O)C(O)CO (stereo not drawn) [6'siallyl-lactose, α-NeuNAcp-(2-6)-β-Galp-(1-4)-Glc, reference compound]
Result: 15.8

* * *

tested on: NK-cells activity (lymphocytes) against K-562 cells; assay: Inhibition of NK-cells activity (chromium release cytotoxicity of lymphocytes against K-562); format: cell-based, human; conditions: 3 mg/ml oligosaccharide; experiment 2 (without inhibitor 32.0); ratio 20:1
ASSAY_METRIC: % specific cytotoxicity (%)
Hi! Could you send only the number? It should be in %, unit omitted.

Example compounds with recorded % specific cytotoxicity:
COMPOUND: CC(=O)NC1C(O)CC(OC2C(O)C(CO)OC(OC3C(CO)OC(O)C(O)C3O)C2O)(C(=O)O)OC1C(O)C(O)CO (stereo not drawn) [3'siallyl-lactose, α-NeuNAcp-(2-3)-β-Galp-(1-4)-Glc, reference compound]
SUBJECT_OF_TEST: NK-cells activity (lymphocytes) against K-562 cells
READOUT_UNIT: %
% specific cytotoxicity: 19.1
//
COMPOUND: CC(=O)N[C@H]1[C@H](O[C@@H]2[C@@H](OC[C@H]3O[C@@H](O[C@H]4[C@H](O)[C@@H](NC(C)=O)C(O)O[C@@H]4CO)[C@@H](O)[C@@H](O)[C@@H]3O)O[C@H](CO)[C@@H](O)[C@@H]2O)O[C@H](CO)[C@@H](O[C@@H]2O[C@H](CO)[C@H](O)[C@H](O)[C@H]2O)[C@@H]1O (stereo partly shown)
SUBJECT_OF_TEST: NK-cells activity (lymphocytes) against K-562 cells
READOUT_UNIT: %
% specific cytotoxicity: 0.0
//
COMPOUND: CC(=O)NC1C(O)CC(OCC2OC(OC3C(CO)OC(O)C(O)C3O)C(O)C(O)C2O)(C(=O)O)OC1C(O)C(O)CO (stereo not drawn) [6'siallyl-lactose, α-NeuNAcp-(2-6)-β-Galp-(1-4)-Glc, reference compound]
SUBJECT_OF_TEST: NK-cells activity (lymphocytes) against K-562 cells
READOUT_UNIT: %
% specific cytotoxicity: 15.1

// moving on: another record for % specific cytotoxicity
Task: Please give the measured % specific cytotoxicity for this compound: CC(=O)N[C@H]1[C@H](O[C@@H]2[C@@H](OC[C@H]3O[C@@H](O[C@H]4[C@H](O)[C@@H](NC(C)=O)C(O)O[C@@H]4CO)[C@@H](O)[C@@H](O[C@H]4O[C@H](CO)[C@@H](O)[C@H](O)[C@@H]4O[C@@H]4O[C@H](CO)[C@@H](O[C@@H]5O[C@H](CO)[C@H](O)[C@H](O)[C@H]5O)[C@H](O)[C@H]4NC(C)=O)[C@@H]3O)O[C@H](CO)[C@@H](O)[C@@H]2O)O[C@H](CO)[C@@H](O[C@@H]2O[C@H](CO)[C@H](O)[C@H](O)[C@H]2O)[C@@H]1O (stereo partly shown)
Result: 12.8

* * *

Item-by-item account of % specific cytotoxicity
test system: NK-cells activity (lymphocytes) against K-562 cells; test: Inhibition of NK-cells activity (chromium release cytotoxicity of lymphocytes against K-562); type: cell-based, human; conditions: 0.3 mg/ml oligosaccharide; experiment 1 (without inhibitor 22.3); ratio 20:1
The figure you give is taken to be in %; do not add the unit.

Known results for molecules:
MOLECULE: CC(=O)N[C@H]1[C@H](O[C@@H]2[C@@H](OC[C@H]3O[C@@H](O[C@H]4[C@H](O)[C@@H](NC(C)=O)C(O)O[C@@H]4CO)[C@@H](O)[C@@H](O)[C@@H]3O)O[C@H](CO)[C@@H](O)[C@@H]2O)O[C@H](CO)[C@@H](O[C@@H]2O[C@H](CO)[C@H](O)[C@H](O)[C@H]2O)[C@@H]1O (stereo partly shown)
READOUT_UNIT: %
ASSAY_VALUE: 16.8
--
MOLECULE: CC(=O)NC1C(O)CC(OCC2OC(OC3C(CO)OC(O)C(O)C3O)C(O)C(O)C2O)(C(=O)O)OC1C(O)C(O)CO (stereo not drawn) [6'siallyl-lactose, α-NeuNAcp-(2-6)-β-Galp-(1-4)-Glc, reference compound]
READOUT_UNIT: %
ASSAY_VALUE: 21.3
--
MOLECULE: CC(=O)N[C@H]1[C@H](O[C@@H]2[C@@H](OC[C@H]3O[C@@H](O[C@H]4[C@H](O)[C@@H](NC(C)=O)C(O)O[C@@H]4CO)[C@@H](O)[C@@H](O[C@H]4O[C@H](CO)[C@@H](O)[C@H](O)[C@@H]4O[C@@H]4O[C@H](CO)[C@@H](O[C@@H]5O[C@H](CO)[C@H](O)[C@H](O)[C@H]5O)[C@H](O)[C@H]4NC(C)=O)[C@@H]3O)O[C@H](CO)[C@@H](O)[C@@H]2O)O[C@H](CO)[C@@H](O[C@@H]2O[C@H](CO)[C@H](O)[C@H](O)[C@H]2O)[C@@H]1O (stereo partly shown)
READOUT_UNIT: %
ASSAY_VALUE: 16.1

Pending molecule:
Task: What % specific cytotoxicity value was documented for this molecule, CC(=O)NC1C(O)CC(OC2C(O)C(CO)OC(OC3C(CO)OC(O)C(O)C3O)C2O)(C(=O)O)OC1C(O)C(O)CO (stereo not drawn) [3'siallyl-lactose, α-NeuNAcp-(2-3)-β-Galp-(1-4)-Glc, reference compound] ?
Result: 23.9

* * *

// reported minimal effective concentration for each item listed
test system: haemagglutination between sheep erythrocytes and S. saprophyticus bacteria (Mc 2 and Mc 194); assay: Inhibition of haemagglutination of sheep erythrocytes with Staphylococcus saprophyticus; format: cell-based; conditions: Staphylococcus saprophyticus, Erythrocyte, read-out: Minimum inhibitory con.

MOLECULE: CC(=O)N[C@H]1[C@H](O[C@H]2[C@@H](O)[C@@H](CO)O[C@@H](O[C@H]3[C@H](O)[C@@H](O)C(O)O[C@@H]3CO)[C@@H]2O)O[C@H](CO)[C@@H](O[C@@H]2O[C@H](CO)[C@H](O)[C@H](O)[C@H]2O)[C@@H]1O (stereo partly shown)
minimal effective concentration: 250 µg/mL

MOLECULE: OC[C@H]1O[C@@H](O[C@H]2[C@@H](O)[C@@H](CO)OC(O)[C@@H]2O)[C@H](O)[C@@H](O)[C@H]1O (stereo partly shown)
minimal effective concentration: > 2500 µg/mL

MOLECULE: CC(=O)N[C@H]1[C@H](O[C@H]2[C@@H](O)[C@@H](CO)O[C@@H](O[C@H]3[C@H](O)[C@@H](O)C(O)O[C@@H]3CO)[C@@H]2O)O[C@H](CO)[C@@H](O)[C@@H]1O[C@@H]1O[C@H](CO)[C@H](O)[C@H](O)[C@H]1O (stereo partly shown)
minimal effective concentration: > 2500 µg/mL

MOLECULE: CC(=O)NC1C(O)CC(OC2C(O)C(CO)OC(OC3C(CO)OC(O)C(O)C3O)C2O)(C(=O)O)OC1C(O)C(O)CO (stereo not drawn) [3'siallyl-lactose, α-NeuNAcp-(2-3)-β-Galp-(1-4)-Glc, reference compound]
minimal effective concentration: > 2500 µg/mL

MOLECULE: OC[C@H]1O[C@H](O[C@@H]2[C@H](O)[C@@H](O)[C@H](O[C@H]3[C@H](O)[C@@H](O)C(O)O[C@@H]3CO)O[C@@H]2CO)[C@H](O)[C@@H](O)[C@H]1O (stereo partly shown)
minimal effective concentration: > 2500 µg/mL

MOLECULE: OC[C@H]1O[C@H](O[C@@H]2[C@H](O)[C@@H](O)C(O)O[C@@H]2CO)[C@H](O)[C@@H](O)[C@H]1O (stereo partly shown)
minimal effective concentration: > 2500 µg/mL

Task: Value lookup for minimal effective concentration; key = CC(=O)N[C@H]1[C@H](O[C@@H]2[C@@H](OC[C@H]3O[C@@H](O[C@H]4[C@H](O)[C@@H](NC(C)=O)C(O)O[C@@H]4CO)[C@@H](O)[C@@H](O)[C@@H]3O)O[C@H](CO)[C@@H](O)[C@@H]2O)O[C@H](CO)[C@@H](O[C@@H]2O[C@H](CO)[C@H](O)[C@H](O)[C@H]2O)[C@@H]1O (stereo partly shown)
Result: 250 µg/mL
